Source: PubChem BioAssay AID1963854

Tested on: 186277-243-T-J2-PDC complex spheroid viability
TEST PROTOCOL: Anticancer human tumor 186277-243-T-J2-PDC patient-derived colon adenocarcinoma cell line growth inhibition [POLQ]
PROTOCOL CONDITIONS: second compound 3.16 µM; first compound 10 µM; active compounds read low
# label = Criterion met if viability, T/C < 80% else Criterion not met

# input # TODO verify viability, T/C < 80% strictly for this compound: CNCc1ccc(-c2[nH]c3cc(F)cc4c3c2CCNC4=O)cc1 + Nc1ccc(C#CCN(C(=O)Cc2ncc(C(F)(F)F)cc2C(F)(F)F)c2ccc(F)cc2)nn1
# output Criterion not met

# input # TODO verify viability, T/C < 80% strictly for this compound: O=c1[nH]cc(F)c(=O)[nH]1 + Nc1ccc(C#CCN(C(=O)Cc2ncc(C(F)(F)F)cc2C(F)(F)F)c2ccc(F)cc2)nn1
# output Criterion met

# input # TODO verify viability, T/C < 80% strictly for this compound: CC1COCCN1c1cc(C2(O)CC3CCC(C2)O3)c2cnn(-c3ccn[nH]3)c2n1 (stereo unspecified) + Nc1ccc(C#CCN(C(=O)Cc2ncc(C(F)(F)F)cc2C(F)(F)F)c2ccc(F)cc2)nn1
# output Criterion met

# input # TODO verify viability, T/C < 80% strictly for this compound: CCc1cc2c(N3CCc4c(cc(Cn5ccnc5)cc4-c4cn(C)nc4C(F)(F)F)C3=O)ccnc2c(OC)n1 + Nc1ccc(C#CCN(C(=O)Cc2ncc(C(F)(F)F)cc2C(F)(F)F)c2ccc(F)cc2)nn1
# output Criterion not met

# input # TODO verify viability, T/C < 80% strictly for this compound: O=C(Nc1ccc(O)c(NS(=O)(=O)c2ccc(F)cc2)c1)c1ccc(-c2ccccc2)cc1 + Cc1cccc(N(C)C(=O)C2C(O)CCN2c2nc(C)cc(C(F)(F)F)c2C#N)c1
# output Criterion not met

----------
Test system: 186277-243-T-J2-PDC complex spheroid viability
TEST PROTOCOL: Anticancer human tumor 186277-243-T-J2-PDC cell line growth inhibition [POLQ];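 note: spheroids exposed to compounds for seven days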
PROTOCOL CONDITIONS: second compound 0.0316 µM; first compound 10 µM; active compounds read low
Category scheme (viability, T/C): low range: < 10%; mid range: ≥ 10% and < 70%; high range: ≥ 70%

# input Classify this compound: CC(C)n1c(=O)n(C)c2cnc3cc(F)c(-c4ccc(OCCCN5CCCCC5)nc4)cc3c21 + COC1C(OC(N)=O)C(O)C(Oc2ccc3c(O)c(NC(=O)c4ccc(O)c(CC=C(C)C)c4)c(=O)oc3c2C)OC1(C)C
# output high range

# input Classify this compound: O=c1[nH]cc(F)c(=O)[nH]1 + Cc1cccc(N(C)C(=O)C2C(O)CCN2c2nc(C)cc(C(F)(F)F)c2C#N)c1
# output mid range

# input Classify this compound: O=C(Nc1ccc(O)c(NS(=O)(=O)c2ccc(F)cc2)c1)c1ccc(-c2ccccc2)cc1 + Nc1ccc(C#CCN(C(=O)Cc2ncc(C(F)(F)F)cc2C(F)(F)F)c2ccc(F)cc2)nn1
# output high range

# input Classify this compound: CC1COCCN1c1cc(C2(S(C)(=N)=O)CC2)nc(-c2ccnc3[nH]ccc23)n1 (stereo not given) + Nc1ccc(C#CCN(C(=O)Cc2ncc(C(F)(F)F)cc2C(F)(F)F)c2ccc(F)cc2)nn1
# output low range

# input Classify this compound: CCCS(=O)(=O)Nc1ccc(F)c(C(=O)c2c[nH]c3ncc(-c4ccc(Cl)cc4)cc23)c1F + Cc1cccc(N(C)C(=O)C2C(O)CCN2c2nc(C)cc(C(F)(F)F)c2C#N)c1
# output mid range

# input Classify this compound: C#Cc1c(F)ccc2cc(O)cc(-c3ncc4c(N5CC6CCC(C5)N6)nc(OCC56CCCN5CC(F)C6)nc4c3F)c12 (stereo not given) + COC1C(OC(N)=O)C(O)C(Oc2ccc3c(O)c(NC(=O)c4ccc(O)c(CC=C(C)C)c4)c(=O)oc3c2C)OC1(C)C
# output low range

# input Classify this compound: O=C(Nc1ccc(O)c(NS(=O)(=O)c2ccc(F)cc2)c1)c1ccc(-c2ccccc2)cc1 + COC1C(OC(N)=O)C(O)C(Oc2ccc3c(O)c(NC(=O)c4ccc(O)c(CC=C(C)C)c4)c(=O)oc3c2C)OC1(C)C
# output high range

# input Classify this compound: CCc1cc2c(N3CCc4c(cc(Cn5ccnc5)cc4-c4cn(C)nc4C(F)(F)F)C3=O)ccnc2c(OC)n1 + COC1C(OC(N)=O)C(O)C(Oc2ccc3c(O)c(NC(=O)c4ccc(O)c(CC=C(C)C)c4)c(=O)oc3c2C)OC1(C)C
# output high range

# input Classify this compound: COc1cc(C2c3cc4c(cc3C(OC3OC5COC(C)OC5C(O)C3O)C3COC(=O)C23)OCO4)cc(OC)c1O (stereo not given) + Cc1cccc(N(C)C(=O)C2C(O)CCN2c2nc(C)cc(C(F)(F)F)c2C#N)c1
# output mid range

# input Classify this compound: CC1COCCN1c1cc(C2(S(C)(=N)=O)CC2)nc(-c2ccnc3[nH]ccc23)n1 (stereo not given) + COC1C(OC(N)=O)C(O)C(Oc2ccc3c(O)c(NC(=O)c4ccc(O)c(CC=C(C)C)c4)c(=O)oc3c2C)OC1(C)C
# output low range
